Listed here are compounds together with their documented inhibition.
subject_of_test: 11-beta-hydroxysteroid dehydrogenase type 2 (Homo sapiens) (UniProt P80365)
Sequence (P80365 whole entry): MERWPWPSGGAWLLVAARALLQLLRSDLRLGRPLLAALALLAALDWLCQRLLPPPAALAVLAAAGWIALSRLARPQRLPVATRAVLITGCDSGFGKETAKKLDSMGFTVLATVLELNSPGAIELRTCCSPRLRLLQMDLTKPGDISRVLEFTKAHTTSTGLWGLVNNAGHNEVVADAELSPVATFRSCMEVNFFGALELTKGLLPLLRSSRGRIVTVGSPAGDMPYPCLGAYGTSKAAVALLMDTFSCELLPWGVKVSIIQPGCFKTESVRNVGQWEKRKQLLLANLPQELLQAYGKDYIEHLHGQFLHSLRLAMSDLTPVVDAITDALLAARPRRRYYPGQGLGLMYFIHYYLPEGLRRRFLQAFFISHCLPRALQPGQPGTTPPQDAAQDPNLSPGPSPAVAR
test: Inhibition of 11beta-HSD2 in human kidney microsomes using [3H]-cortisol as substrate assessed as formation of cortisone at 100 uM after 30 mins by radiometric analysis relative to control
details: Microsome
A number alone suffices; assume %.

Past entries and their recorded results:
INSERT INTO assay_data (compound, subject_of_test, experimental_value) VALUES
  ('CN(C)c1ccc(/C=C2\CC/C(=C\c3ccc(N(C)C)cc3)C2=O)cc1', '11-beta-hydroxysteroid dehydrogenase type 2 (Homo sapiens) (UniProt P80365)', 0),
  ('CCOc1ccc(/C=C2\CCC/C(=C\c3ccc(OCC)cc3)C2=O)cc1', '11-beta-hydroxysteroid dehydrogenase type 2 (Homo sapiens) (UniProt P80365)', 11),
  ('O=C1/C(=C/c2cccc(C(F)(F)F)c2F)CC/C1=C\c1cccc(C(F)(F)F)c1F', '11-beta-hydroxysteroid dehydrogenase type 2 (Homo sapiens) (UniProt P80365)', 0),
  ('O=C1/C(=C/c2ccc(O)cc2)CC/C1=C\c1ccc(O)cc1', '11-beta-hydroxysteroid dehydrogenase type 2 (Homo sapiens) (UniProt P80365)', 0),
  ('O=C(/C=C/c1ccc(F)cc1)/C=C/c1ccc(F)cc1', '11-beta-hydroxysteroid dehydrogenase type 2 (Homo sapiens) (UniProt P80365)', 26);

Entry O=C1/C(=C/c2ccc(OC3CCCCO3)cc2)CC/C1=C\c1ccc(OC2CCCCO2)cc1 (centres undefined) , 11-beta-hydroxysteroid dehydrogenase type 2 (Homo sapiens) (UniProt P80365) data, inhibition value: 0

The reported 11-beta-hydroxysteroid dehydrogenase type 2 (Homo sapiens) (UniProt P80365) inhibition of `O=C1/C(=C/c2ccccc2Br)CCC/C1=C\c1ccccc1Br` is 33

Query `O=C1/C(=C/c2ccccc2Br)CC/C1=C\c1ccccc1Br` on 11-beta-hydroxysteroid dehydrogenase type 2 (Homo sapiens) (UniProt P80365); inhibition returned: 36
